- measurement-target: UniProt:Q13464
- Sequence (Q13464 whole entry): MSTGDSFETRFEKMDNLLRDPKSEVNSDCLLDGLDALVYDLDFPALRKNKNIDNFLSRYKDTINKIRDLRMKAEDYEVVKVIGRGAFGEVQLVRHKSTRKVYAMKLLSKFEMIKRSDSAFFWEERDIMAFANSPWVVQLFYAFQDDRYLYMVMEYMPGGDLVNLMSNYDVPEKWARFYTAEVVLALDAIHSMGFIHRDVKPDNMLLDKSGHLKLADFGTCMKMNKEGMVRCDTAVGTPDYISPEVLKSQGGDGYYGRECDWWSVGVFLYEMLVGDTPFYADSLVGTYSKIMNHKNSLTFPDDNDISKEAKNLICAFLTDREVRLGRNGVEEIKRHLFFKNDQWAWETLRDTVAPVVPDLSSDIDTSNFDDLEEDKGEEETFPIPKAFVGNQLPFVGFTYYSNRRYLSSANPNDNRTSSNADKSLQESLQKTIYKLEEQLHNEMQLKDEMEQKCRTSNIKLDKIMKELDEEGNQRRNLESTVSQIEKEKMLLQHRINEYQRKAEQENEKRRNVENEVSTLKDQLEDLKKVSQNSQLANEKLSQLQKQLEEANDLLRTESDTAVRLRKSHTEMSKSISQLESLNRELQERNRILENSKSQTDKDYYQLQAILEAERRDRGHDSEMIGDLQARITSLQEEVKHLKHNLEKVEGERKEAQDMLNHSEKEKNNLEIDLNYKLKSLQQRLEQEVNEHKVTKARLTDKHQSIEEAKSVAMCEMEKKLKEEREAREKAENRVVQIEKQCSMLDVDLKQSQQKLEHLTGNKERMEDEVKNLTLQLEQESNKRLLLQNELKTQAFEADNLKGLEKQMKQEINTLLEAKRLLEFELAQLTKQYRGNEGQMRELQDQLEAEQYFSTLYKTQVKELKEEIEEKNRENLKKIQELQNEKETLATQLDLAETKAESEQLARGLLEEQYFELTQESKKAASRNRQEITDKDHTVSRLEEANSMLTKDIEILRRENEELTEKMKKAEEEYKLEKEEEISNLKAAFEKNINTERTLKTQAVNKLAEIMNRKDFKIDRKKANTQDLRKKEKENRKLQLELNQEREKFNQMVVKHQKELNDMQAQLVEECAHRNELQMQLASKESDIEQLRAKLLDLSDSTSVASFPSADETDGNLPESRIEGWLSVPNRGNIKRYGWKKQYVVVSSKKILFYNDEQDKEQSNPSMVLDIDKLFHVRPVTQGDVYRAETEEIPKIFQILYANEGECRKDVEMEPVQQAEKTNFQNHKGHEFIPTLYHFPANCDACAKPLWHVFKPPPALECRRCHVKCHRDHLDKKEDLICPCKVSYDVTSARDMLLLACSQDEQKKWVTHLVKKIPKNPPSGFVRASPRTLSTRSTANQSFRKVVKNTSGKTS
- protocol-details: biochemical
Where a name gives a salt, the structure may show the parent alone.

- compound: "O=C(COc1cccc(-c2nccc(Nc3ccc4[nH]ncc4c3)n2)c1)N[C@@H]1CCNC1 [Example 12, HCl salt]"
  Ki / nM: 70

###

- measurement-target: UniProt Q13464
- protocol-details: Invitrogen Z'-LYTE Kinase Assay
- Type: biochemical
- Design: purchased Invitrogen PV3691
- reported-conditions: 5 uM ATP, ROCK1 0.18 ug/mL
Counter-ions that a name gives are not always drawn.
attribute-measured: log10 IC50 (log10 of the value in nM)

- molecule: "CC(C)NC(=O)COc1cccc(-c2nc(Nc3ccc4[nH]ncc4c3)cc(N3CCCNCC3)n2)c1 [Example 121]"
  measurement-target: "UniProt Q13464"
  test-result: 3.14
- molecule: "COc1cccc(-c2nccc(Nc3ccc4[nH]ncc4c3)n2)c1 [Example 140]"
  measurement-target: "UniProt Q13464"
  test-result: 3.28
- molecule: "c1cc(OCCN2CCOCC2)cc(-c2nccc(Nc3ccc4[nH]ncc4c3)n2)c1 [Example 144]"
  measurement-target: "UniProt Q13464"
  test-result: 3.29
- molecule: "O=C(Oc1cccc(-c2nccc(Nc3ccc4[nH]ncc4c3)n2)c1)N1CCOCC1 [Example 129]"
  measurement-target: "UniProt Q13464"
  test-result: 3.04
- molecule: "c1cc(OCc2ccncc2)cc(-c2nccc(Nc3ccc4[nH]ncc4c3)n2)c1 [Example 136]"
  measurement-target: "UniProt Q13464"
  test-result: 2.23
- molecule: "CC(C)NC(=O)COc1cccc(-c2ncc(OCCN(C)C)c(Nc3ccc4[nH]ncc4c3)n2)c1 [Example 43, TFA salt]"
  measurement-target: "UniProt Q13464"
  test-result: 2.88
- molecule: "COCCOc1cccc(-c2nccc(Nc3ccc4[nH]ncc4c3)n2)c1 [Example 138]"
  measurement-target: "UniProt Q13464"
  test-result: 3.30

###

- measurement-target: ROCK2 (Homo sapiens, UniProt O75116)
- Construct: purchased Invitrogen PV3759
- Sequence (O75116 whole entry): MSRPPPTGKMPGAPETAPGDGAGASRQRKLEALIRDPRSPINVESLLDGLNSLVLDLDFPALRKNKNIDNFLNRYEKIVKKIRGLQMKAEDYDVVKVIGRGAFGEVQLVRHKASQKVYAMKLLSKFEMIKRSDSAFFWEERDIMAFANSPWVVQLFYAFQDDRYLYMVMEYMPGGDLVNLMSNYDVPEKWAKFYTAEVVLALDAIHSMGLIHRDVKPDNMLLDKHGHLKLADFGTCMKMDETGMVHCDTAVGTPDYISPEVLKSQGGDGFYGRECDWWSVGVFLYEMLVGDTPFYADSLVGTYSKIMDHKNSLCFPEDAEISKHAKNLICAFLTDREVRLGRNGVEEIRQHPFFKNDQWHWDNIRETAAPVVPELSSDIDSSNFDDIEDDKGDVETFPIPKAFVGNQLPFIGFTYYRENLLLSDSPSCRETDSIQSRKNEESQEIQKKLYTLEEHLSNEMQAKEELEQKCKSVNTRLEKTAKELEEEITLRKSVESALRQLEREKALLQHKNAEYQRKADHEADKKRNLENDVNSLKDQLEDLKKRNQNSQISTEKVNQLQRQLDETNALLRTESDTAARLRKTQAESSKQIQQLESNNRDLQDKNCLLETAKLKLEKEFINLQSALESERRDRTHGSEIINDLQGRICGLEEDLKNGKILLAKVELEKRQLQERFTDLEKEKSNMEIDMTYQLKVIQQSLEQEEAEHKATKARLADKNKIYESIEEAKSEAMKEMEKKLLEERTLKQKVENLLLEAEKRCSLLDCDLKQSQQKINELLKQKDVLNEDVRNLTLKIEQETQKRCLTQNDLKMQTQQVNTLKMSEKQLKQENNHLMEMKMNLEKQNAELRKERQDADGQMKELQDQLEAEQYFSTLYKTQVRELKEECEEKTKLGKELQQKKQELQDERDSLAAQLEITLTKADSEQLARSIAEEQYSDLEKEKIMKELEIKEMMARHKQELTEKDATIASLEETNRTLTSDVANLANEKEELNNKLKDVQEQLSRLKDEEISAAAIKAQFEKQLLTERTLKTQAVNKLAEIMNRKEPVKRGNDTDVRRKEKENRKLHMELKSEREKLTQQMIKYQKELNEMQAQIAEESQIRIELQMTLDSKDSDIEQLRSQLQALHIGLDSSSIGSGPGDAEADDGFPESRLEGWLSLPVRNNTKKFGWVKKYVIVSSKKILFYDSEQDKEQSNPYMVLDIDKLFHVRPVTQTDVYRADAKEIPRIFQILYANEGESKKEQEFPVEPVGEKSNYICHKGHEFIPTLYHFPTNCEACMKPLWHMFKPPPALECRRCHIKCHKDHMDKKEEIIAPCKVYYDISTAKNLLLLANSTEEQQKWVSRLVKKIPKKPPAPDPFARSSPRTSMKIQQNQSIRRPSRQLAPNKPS
- protocol-details: Invitrogen Z'-LYTE Kinase Assay
- Type: biochemical

- record-smiles: "CN(C)C(=O)Oc1cccc(-c2nccc(Nc3ccc4[nH]ncc4c3)n2)c1"
  IC50: "39 nM"

###

- measurement-target: ROCK2 (Homo sapiens, UniProt O75116)
- Construct: purchased Invitrogen PV3759
- protocol-details: Invitrogen Z'-LYTE Kinase Assay
- Assay type: biochemical
- reported-conditions: Z'-LYTE, 12 uM ATP, ROCK2 0.8 ug/mL; read-out: ROCK2 IC50
Structures can show the parent of a compound that is named as a salt.
# IC50 per record follows

- molecule: "CC(C)NC(=O)COc1cccc(-c2nc(Nc3ccc4[nH]ncc4c3)cc(N3CCCNCC3)n2)c1 [Example 121]"
  unit-label: "µM"
  qual: "="
  IC50: 0.013
- molecule: "COc1cccc(-c2nccc(Nc3ccc4[nH]ncc4c3)n2)c1 [Example 140]"
  unit-label: "µM"
  qual: "="
  IC50: 0.055
- molecule: "CC(N)c1cccc(-c2nccc(Nc3ccc4[nH]ncc4c3)n2)c1 (centres unmarked) [Example 147]"
  unit-label: "µM"
  qual: ">"
  IC50: 5.5
- molecule: "O=C(Oc1cccc(-c2nccc(Nc3ccc4[nH]ncc4c3)n2)c1)N1CCOCC1 [Example 129]"
  unit-label: "µM"
  qual: "="
  IC50: 0.01
- molecule: "CC(C)NC(=O)COc1cccc(-c2ncc(OCCN(C)C)c(Nc3ccc4[nH]ncc4c3)n2)c1 [Example 43, TFA salt]"
  unit-label: "µM"
  qual: "="
  IC50: 0.025
- molecule: "COCCOc1cccc(-c2nccc(Nc3ccc4[nH]ncc4c3)n2)c1 [Example 138]"
  unit-label: "µM"
  qual: "="
  IC50: 0.008
- molecule: "CC(C)NC(=O)COc1cccc(-c2nc(Nc3ccc4[nH]ncc4c3)cc(C(F)(F)F)n2)c1 [Example 169]"
  unit-label: "µM"
  qual: ">"
  IC50: 10
- molecule: "c1cc(OCCN2CCOCC2)cc(-c2nccc(Nc3ccc4[nH]ncc4c3)n2)c1 [Example 144]"
  unit-label: "µM"
  qual: "="
  IC50: 0.058
